Biological target: soluble guanylate cyclase (human GUCYA3/GUCYB3) overexpressed in CHO cells (Homo sapiens, UniProt Q02108+Q02153)
Sequence (Q02108 whole entry partner): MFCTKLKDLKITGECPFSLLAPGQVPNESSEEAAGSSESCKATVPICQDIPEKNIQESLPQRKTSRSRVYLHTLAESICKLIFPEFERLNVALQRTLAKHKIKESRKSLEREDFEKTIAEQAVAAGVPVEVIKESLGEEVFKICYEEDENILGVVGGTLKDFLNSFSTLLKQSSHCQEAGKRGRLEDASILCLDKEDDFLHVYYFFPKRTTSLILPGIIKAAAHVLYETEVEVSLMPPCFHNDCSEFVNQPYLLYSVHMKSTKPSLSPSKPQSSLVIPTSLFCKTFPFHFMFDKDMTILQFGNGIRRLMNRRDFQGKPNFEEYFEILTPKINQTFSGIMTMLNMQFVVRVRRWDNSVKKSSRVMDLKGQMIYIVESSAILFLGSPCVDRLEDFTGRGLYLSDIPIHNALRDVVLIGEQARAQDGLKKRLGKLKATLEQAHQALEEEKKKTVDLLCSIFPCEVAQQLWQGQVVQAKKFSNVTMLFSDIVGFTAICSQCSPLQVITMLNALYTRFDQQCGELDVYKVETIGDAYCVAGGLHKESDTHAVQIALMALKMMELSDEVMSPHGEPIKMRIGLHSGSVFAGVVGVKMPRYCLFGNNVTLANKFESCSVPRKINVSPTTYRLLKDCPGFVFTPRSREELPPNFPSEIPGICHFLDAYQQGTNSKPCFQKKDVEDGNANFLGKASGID
Sequence (Q02153 whole entry): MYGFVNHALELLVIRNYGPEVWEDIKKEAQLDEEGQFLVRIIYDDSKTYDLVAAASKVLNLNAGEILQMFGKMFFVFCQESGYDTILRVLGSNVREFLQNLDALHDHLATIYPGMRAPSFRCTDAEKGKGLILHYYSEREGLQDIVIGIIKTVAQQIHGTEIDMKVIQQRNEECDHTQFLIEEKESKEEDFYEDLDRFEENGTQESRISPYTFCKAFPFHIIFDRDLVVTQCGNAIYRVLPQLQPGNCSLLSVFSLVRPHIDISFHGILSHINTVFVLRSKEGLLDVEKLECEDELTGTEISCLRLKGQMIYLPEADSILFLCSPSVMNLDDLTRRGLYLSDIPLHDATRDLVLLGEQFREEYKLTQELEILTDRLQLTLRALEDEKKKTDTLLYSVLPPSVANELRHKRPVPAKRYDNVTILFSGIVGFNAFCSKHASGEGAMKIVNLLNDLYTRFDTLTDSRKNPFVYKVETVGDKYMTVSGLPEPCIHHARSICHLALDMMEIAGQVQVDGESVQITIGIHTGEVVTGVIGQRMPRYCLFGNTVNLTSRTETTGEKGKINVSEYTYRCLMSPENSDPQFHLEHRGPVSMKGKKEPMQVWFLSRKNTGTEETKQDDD
Assay: CHO cellular assay (cGMP production, HTRF)
Conditions: CHO K1 clone 8E10 overexpressing human sGC, Cisbio HTRF, 1 h room temperature, 1 mM IBMX, 20 uM ODQ, minimum quantification limit 0.5 nM
Protocol: Chinese hamster ovary (CHO) cells overexpressing soluble guanylate cyclase were generated to test the effect of sGC activators in a cellular context. Human cDNAs for GUCYA3 (RefSeq: NM_000856.3) and GUCYB3 (RefSeq: NM_000857.1) were amplified by PCR from a HUVEC (Human Umbilical Vein Endothelial Cells) cDNA library and cloned into mammalian expression vectors. […] The EC50s are calculated based on the amount of cGMP interpolated from the standard curve, using a 4-parameter sigmoidal dose-response.
measurement-type: EC50 (nM)

| molecule | EC50 [nM] |
| --- | --- |
| Cc1cc(COc2ccc(C3CCN(CC(F)(F)F)CC3)cc2C)c(-c2cccc(-n3ncc(C(=O)O)c3C(F)(F)F)n2)s1 | 6.3 |
| Cc1cc(C2CCN(C(=O)C3CCOC3)CC2)ccc1OCc1ccsc1-c1cccc(-n2ncc(C(=O)O)c2C(F)(F)F)n1 (racemic) | 6.9 |
| CCc1cc(NCc2cc(C)sc2-c2cccc(-n3ncc(C(=O)O)c3C(F)(F)F)n2)ccc1C1CCN(C(=O)C2CC2)CC1 | 6 |
